The values you see were collected from patent US9376420B2.

target: human LXRβ (Homo sapiens, UniProt P55055); construct: expressed in transfected cells; host or cells: HEK293 cells (ATCC CRL-1573), transient transfection with pFA-hLXRβ/GAL4 and pUAS; experiment: Assay for Transcriptional Activity of LXRβ (GAL4-hLXRβ LBD luciferase reporter, transient transfection); type: cell-based; conditions: increase of transcriptional activity of LXRβ; HEK293 cells transfected with pFA-hLXRβ/GAL4 and pUAS; 24 hours; average of three independent tests
Sequence (P55055 222-460 limits assumed): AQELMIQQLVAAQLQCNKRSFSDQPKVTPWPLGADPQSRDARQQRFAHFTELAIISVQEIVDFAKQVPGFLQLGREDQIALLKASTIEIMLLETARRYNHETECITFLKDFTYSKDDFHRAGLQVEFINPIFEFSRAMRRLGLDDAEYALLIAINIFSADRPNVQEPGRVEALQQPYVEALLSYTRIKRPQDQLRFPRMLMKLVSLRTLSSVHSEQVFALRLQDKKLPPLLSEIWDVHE
endpoint: EC50 (nM)

C[S+]([O-])c1ccc(-c2cccc(C3CC(C(F)(F)C(F)(F)F)=NN3c3ccc(Cl)cc3Cl)c2)cc1 (stereo not shown) [Example 42]: 593
CSc1ccc(-c2cccc(C3CC(C(F)(F)C(F)(F)F)=NN3c3ccc(F)cc3F)c2)cc1 (stereo not shown) [Example 30]: 8570
CS(=O)(=O)c1cccc(-c2ccc(C3CC(C(O)(C(F)(F)F)C(F)(F)F)=NN3c3ccc(F)cc3F)cc2)c1 (stereo not shown) [Example 413]: 156
COc1ncc(-c2ccc(C3CC(C(O)(C(F)(F)F)C(F)(F)F)=NN3c3ccccc3Cl)cc2)c(OC)n1 (stereo not shown) [Example 280]: 556
Fc1ccc(N2N=C(C(F)(F)C(F)(F)F)CC2c2ccc(F)c(-c3ccc(Cl)nc3)c2)c(F)c1 (stereo not shown) [Example 130]: 10300
CC(C)(C)OC(=O)N1CC=C(c2ccc(C3CC(C(O)(C(F)(F)F)C(F)(F)F)=NN3c3ccc(F)cc3F)cc2)CC1 (stereo not shown) [Example 398]: 1810
CS(=O)(=O)c1cccc(-c2cccc(N3N=C(C(O)(C(F)(F)F)C(F)(F)F)CC3c3ccccc3Cl)c2)c1 (stereo not shown) [Example 434]: 354

----------
Items are presented alongside their recorded Emax.
molecular target: human LXRβ (Homo sapiens); construct: expressed in transfected cells; host or cells: HEK293 cells (ATCC CRL-1573), transient transfection with pFA-hLXRβ/GAL4 and pUAS; experiment: Assay for Transcriptional Activity of LXRβ (GAL4-hLXRβ LBD luciferase reporter, transient transfection); assay type: cell-based; settings: fold value in comparison with the control (DMSO-treated group); HEK293 cells transfected with pFA-hLXRβ/GAL4 and pUAS; 24 hours
endpoint: Emax (fold)

Cc1ccncc1-c1ccc(C2CC(C(O)(C(F)(F)F)C(F)(F)F)=NN2c2ccccc2Cl)cc1 (stereo not shown): 45
Cc1ccccc1-c1ccc(C2CC(C(O)(C(F)(F)F)C(F)(F)F)=NN2c2ccccc2Cl)cc1 (stereo not shown): 115
CC(C)(C)OC(=O)N1CC=C(c2cccc(C3CC(C(F)(F)C(F)(F)F)=NN3c3ccc(F)cc3F)c2)CC1 (stereo not shown): 11
O=S(=O)(C1CCCCC1)N1CC=C(c2ccc(C3CC(C(O)(C(F)(F)F)C(F)(F)F)=NN3c3ccccc3Cl)cc2)CC1 (stereo not shown): 52
CS(=O)(=O)c1ccc(-c2cccc(C3CC(C(F)(F)C(F)(F)F)=NN3Cc3ccccc3Cl)c2)cc1 (stereo not shown): 17
CC(=O)c1ccc(-c2ccc(C3CC(C(O)(C(F)(F)F)C(F)(F)F)=NN3c3ccccc3Cl)cc2F)cc1 (stereo not shown): 72
CSc1ccc(-c2cccc(C3CC(C(F)(F)C(F)(F)F)=NN3c3ccccc3Cl)c2)cc1 (stereo not shown): 55
OC(C1=NN(c2ccc(F)cc2F)C(c2ccc(-c3c(F)cc(-n4cnnn4)cc3F)cc2)C1)(C(F)(F)F)C(F)(F)F (stereo not shown): 8
CS(=O)(=O)c1cncc(-c2cccc(N3N=C(C(F)(F)C(F)(F)F)CC3c3ccc(F)cc3F)c2)c1 (stereo not shown): 16
COc1cc(C)c(-c2ccc(C3CC(C(O)(C(F)(F)F)C(F)(F)F)=NN3c3ccc(F)cc3F)cc2)cn1 (stereo not shown): 49
CC(C)S(=O)(=O)N1CC=C(c2ccc(C3CC(C(O)(C(F)(F)F)C(F)(F)F)=NN3c3ccccc3Cl)cc2)CC1 (stereo not shown): 73
COc1ccc(-c2cccc(C3CC(C(F)(F)C(F)(F)F)=NN3c3ccc(F)cc3F)c2)cn1 (stereo not shown): 78
OC(C1=NN(c2ccccc2Cl)C(c2ccc(-c3cnc4ccccc4c3)cc2)C1)(C(F)(F)F)C(F)(F)F (stereo not shown): 57
CS(=O)(=O)c1ccc(-c2cccc(C3CC(C(F)(F)C(F)(F)F)=NN3c3ccc(F)cc3F)c2)cn1 (stereo not shown): 81
CS(=O)(=O)c1ccc(-c2ccnc(C3CC(C(F)(F)C(F)(F)F)=NN3c3ccc(F)cc3F)c2)cc1 (stereo not shown): 119
COC(=O)c1cncc(-c2ccc(C3CC(C(O)(C(F)(F)F)C(F)(F)F)=NN3c3ccccc3Cl)cc2)c1 (stereo not shown): 45
CS(=O)(=O)c1cc(F)c(-c2cccc(C3CC(C(F)(F)C(F)(F)F)=NN3c3ccc(F)cc3F)c2)cc1F (stereo not shown): 75
CS(=O)(=O)N1CC=C(c2cccc(N3N=C(C(O)(C(F)(F)F)C(F)(F)F)CC3c3ccccc3Cl)c2)CC1 (stereo not shown): 13
OC(C1=NN(c2ccc(F)cc2F)C(c2ccc(-c3cncc(F)c3)cc2)C1)(C(F)(F)F)C(F)(F)F (stereo not shown): 50
COc1ccc(-c2ccc(C3CC(C(O)(C(F)(F)F)C(F)(F)F)=NN3c3ccccc3Cl)cc2)cc1 (stereo not shown): 89
CN(C)S(=O)(=O)c1cccc(-c2cccc(C3CC(C(F)(F)C(F)(F)F)=NN3c3ccc(F)cc3F)c2)c1 (stereo not shown): 46
CSc1cccc(-c2ccc(C3CC(C(O)(C(F)(F)F)C(F)(F)F)=NN3c3ccccc3Cl)c(F)c2)c1 (stereo not shown): 87
CS(=O)(=O)N1CCN(c2ccc(C3CC(C(O)(C(F)(F)F)C(F)(F)F)=NN3c3ccccc3Cl)cn2)CC1 (stereo not shown): 45
CC(C)Oc1ccccc1-c1ccc(C2CC(C(O)(C(F)(F)F)C(F)(F)F)=NN2c2ccccc2Cl)cc1F (stereo not shown): 59
CS(=O)(=O)c1cc(F)c(-c2ccc(C3CC(C(O)(C(F)(F)F)C(F)(F)F)=NN3c3ccccc3Cl)cc2)c(F)c1 (stereo not shown): 40
C[S+]([O-])c1ccc(-c2cccc(C3CC(C(F)(F)C(F)(F)F)=NN3c3ccc(Cl)cc3Cl)c2)cc1 (stereo not shown): 103
OC(C1=NN(c2ccc(F)cc2F)C(c2ccc(-c3cncnc3)cc2)C1)(C(F)(F)F)C(F)(F)F (stereo not shown): 42
CN(C)S(=O)(=O)c1ccc(-c2ccc(C3CC(C(O)(C(F)(F)F)C(F)(F)F)=NN3c3ccc(F)cc3F)cc2)cc1 (stereo not shown): 83
